test system: HepG2-ACTB-RAB5A; assay: phenotypically active (imaging signature differs from DMSO and reproducible) at any of 0.3-9 uM (binary (1 = active, 0 = inactive)); higher = active; conditions: treatment time: 24 h
Where a name gives a salt, the structure may show the parent alone.
Labels: 1 (active), 0 (inactive)

Molecule	Assigned class
C[C@H]1CCC2(NC1)O[C@H]1C[C@H]3[C@@H]4CC[C@H]5C[C@@H](O[C@@H]6O[C@H](CO)[C@H](O[C@@H]7O[C@H](CO)[C@@H](O)[C@H](O[C@@H]8OC[C@@H](O)[C@H](O)[C@H]8O)[C@H]7O[C@@H]7O[C@H](CO)[C@@H](O)[C@H](O)[C@H]7O)[C@H](O)[C@H]6O)CC[C@]5(C)[C@H]4CC[C@]3(C)[C@H]1[C@@H]2C (stereo partly drawn) [Tomatine]	0
NC(=O)CS(=O)C(c1ccccc1)c1ccccc1 (stereo not drawn) [modafinil]	0
C[C@]1(C(=O)O)CCC[C@]2(C)c3cc(O)ccc3CC[C@@H]12 [Podocarpic acid]	0
O=C1CN=C(c2ccccc2)c2cc(Cl)ccc2N1CC(F)(F)F [halazepam]	0
CN1[C@@H]2C[C@@H](OC(=O)[C@H](CO)c3ccccc3)C[C@H]1[C@@H]1O[C@@H]12 [Scopolamine hydrobromide]	0
C[N+]12CCC(CC1)C(OC(=O)C(O)(c1ccccc1)c1ccccc1)C2 (stereo not drawn) [clidinium]	0
COc1ccc2c(c1)[C@]13CCCC[C@@H]1[C@H](C2)N(C)CC3 [dextromethorphan]	0
CC(C)(O)[C@H]1O[C@H]2CC[C@@]3(C)[C@@](O)(CC[C@H]4Cc5c([nH]c6ccccc56)[C@@]43C)C2=CC1=O [paxilline]	1
C=C[C@H]1C[N@@]2CC[C@H]1C[C@H]2[C@H](O)c1ccnc2ccccc12 [(-)-Cinchonidine]	0
C[C@@H](N)[C@@H](O)c1ccccc1 [phenylpropanolamine]	0
CCN1C[C@@]2(COC)C3[C@@H](OC)[C@H]4[C@H]1C3([C@@H]1C[C@@]3(O)[C@H](OC(=O)c5ccccc5)[C@@H]1[C@]4(OC(C)=O)[C@@H](O)[C@@H]3OC)[C@H](OC)C[C@H]2O [Aconitine]	0
C/C=C(/C)C(=O)O[C@H]1C(C)=C2[C@H]([C@@H]1OC(=O)CCCCCCC)[C@@](C)(OC(C)=O)C[C@H](OC(=O)CCC)[C@@]1(O)[C@H]2OC(=O)[C@@]1(C)O [Thapsigargin]	1
Cc1cc2c(C(C)C)c(O)c(O)c(C=O)c2c(O)c1-c1c(C)cc2c(C(C)C)c(O)c(O)c(C=O)c2c1O [gossypol]	1

====

Entries and their phenotypically active values follow.
test system: HepG2-GM130-SQSTM1; assay: phenotypically active (imaging signature differs from DMSO and reproducible) at any of 0.3-9 uM (binary (1 = active, 0 = inactive)); higher = active; conditions: treatment time: 24 h
Where a name gives a salt, the structure may show the parent alone.

Compound	phenotypically active
CCC(=O)O[C@](Cc1ccccc1)(c1ccccc1)[C@H](C)CN(C)C	0
CC(C)NCC(O)c1ccc(N)c(C#N)c1 (configuration not stated)	0
C[C@@H]1NCCc2cc(O)c(O)cc21 [Salsolinol hydrobromide]	0
CCN(C(C)=O)c1cccc(-c2ccnc3c(C#N)cnn23)c1	0
CCOc1cc(C=O)ccc1O	0
C[C@@H]1C[C@@H]([C@H](O)CC2CC(=O)NC(=O)C2)C(=O)[C@@H](C)C1 [Cycloheximide]	1
Cc1c(C(=O)Nc2cccc(C(F)(F)F)c2)cc(-c2ccccc2)n1CCCN1CCOCC1	0
C/C=C(/C)C(=O)O[C@H]1C(C)=C2[C@H]([C@@H]1OC(=O)CCCCCCC)[C@@](C)(OC(C)=O)C[C@H](OC(=O)CCC)[C@@]1(O)[C@H]2OC(=O)[C@@]1(C)O	1
C=C1[C@@H](O)C2C=CC[C@H](C)C(=O)[C@](C)(O)C=C[C@@H](OC(C)=O)[C@]23C(=O)N[C@H](Cc2ccccc2)[C@@H]3[C@@H]1C (some centres not stated)	1
COc1ccc2c(c1O)-c1c(OC)c(OC)cc3c1[C@H](C2)N(C)CC3 [Isocorydine (+)]	0
N#CC(C#N)=Cc1ccc(O)c(O)c1	0
Clc1ccc2c(c1)C(c1ccccc1)=NCc1nncn1-2	0
CN(C)NC(=O)CCC(=O)O [Daminozide]	0
Cc1sc2c(c1C)C(c1ccc(Cl)cc1)=N[C@@H](CC(=O)OC(C)(C)C)c1nnc(C)n1-2	1
C/C=C(/C)C(=O)O[C@H]1CC[C@@]2(C)[C@@H]3CC[C@H]4[C@]5(O)C[C@H](O)[C@@]6(O)[C@@H](CN7C[C@@H](C)CC[C@H]7[C@@]6(C)O)[C@]5(O)C[C@@]42O[C@]13O	0
C[C@]1(C(=O)O)CCC[C@]2(C)c3cc(O)ccc3CC[C@@H]12	0
Fc1ccccc1C1=NCC(=S)N(CC(F)(F)F)c2ccc(Cl)cc21	0

====

system: A549-TUBA1B-RELA; assay: lowest phenotypically active concentration; higher = less potent; conditions: treatment time: 24 h
Counter-ions that a name gives are not always drawn.
Measurement kind: lowest phenotypically active concentration (µM)

Compound	Units label	Value relation sign	Numeric value
CC(C)[C@@]1(NC(=O)[C@@H]2C[C@@H]3c4cccc5[nH]cc(c45)C[C@H]3N(C)C2)O[C@@]2(O)[C@@H]3CCCN3C(=O)[C@H](Cc3ccccc3)N2C1=O [Dihydroergocristine mesylate]	µM	=	9
O=C1NC(=O)c2c1c1c3ccccc3n3c1c1c2c2ccccc2n1C1CCC3O1	µM	≤	0.3
COC1=CC(C)=C[C@@H](C)[C@@H](O)[C@@H](C)CC(C)=CC=C[C@H](OC)[C@@H]([C@@H](C)[C@@H](O)[C@H](C)[C@@]2(O)C[C@@H](O)[C@H](C)[C@@H](C(C)C)O2)OC1=O [Bafilomycin A1]	µM	≤	0.3
COc1ccc2c(c1)/C(=C/c1c[nH]cn1)C(=O)N2	µM	=	1
O=C(Nc1ccncc1)C(=O)c1cn(Cc2ccc(Cl)cc2)c2ccccc12 [Indibulin]	µM	≤	0.3
CC[C@@H]1C=CC=CC[C@H](C)[C@@H](O)[C@](C)(O)C(=O)[C@H](C)[C@@H](O)[C@H](C)C(=O)[C@H](C)[C@@H](O)[C@H](C)C=CC(=O)O[C@H]2[C@@H](C)[C@@H](CC1)O[C@@]1(CC[C@@H](C)[C@@H](C[C@H](C)O)O1)[C@@H]2C [Oligomycin A]	µM	≤	0.3
C[C@H](N)Cc1ccccc1 [dextroamphetamine]	µM	=	3
COc1ccc(C[C@H]2NC[C@H](O)[C@H]2OC(C)=O)cc1 [Anisomycin]	µM	≤	0.3
O=C1NC(=S)N(c2cccc(Br)c2)C(=O)/C1=C/c1ccco1	µM	=	9
Cc1cc2c(C(C)C)c(O)c(O)c(C=O)c2c(O)c1-c1c(C)cc2c(C(C)C)c(O)c(O)c(C=O)c2c1O [gossypol]	µM	=	9
COc1ccc(N(C(=O)Oc2c(C)cccc2C)c2ccnc(Nc3ccc(N4CCN(C)CC4)cc3)n2)c(OC)c1	µM	=	1
N#CC(C#N)=NNc1ccc(OC(F)(F)F)cc1	µM	=	3
CN1C[C@H](C(=O)N[C@]2(C)O[C@@]3(O)[C@@H]4CCCN4C(=O)[C@H](Cc4ccccc4)N3C2=O)C=C2c3cccc4[nH]cc(c34)C[C@H]21 [ergotamine]	µM	=	3
CC[C@@H](C(=O)[C@@H](C)[C@@H](O)[C@H](C)[C@@H]1O[C@@H]([C@@H](CC)C(=O)O)CC[C@@H]1C)[C@H]1O[C@]2(C=C[C@@H](O)[C@]3(CC[C@@](C)([C@H]4CC[C@](O)(CC)[C@H](C)O4)O3)O2)[C@H](C)C[C@@H]1C [Salinomycin Sodium]	µM	≤	0.3
C[C@H]1C(=O)O[C@@H]2CCN3CC=C(COC(=O)[C@](C)(O)[C@]1(C)O)[C@H]23 [Monocrotaline]	µM	=	3
COc1cc2c(c(OC)c1OC)-c1ccc(O)c(=O)cc1[C@@H](N)CC2 [Trimethylcolchicinic acid]	µM	=	9
C/C=C(/C)C(=O)O[C@H]1C(C)=C2[C@H]([C@@H]1OC(=O)CCCCCCC)[C@@](C)(OC(C)=O)C[C@H](OC(=O)CCC)[C@@]1(O)[C@H]2OC(=O)[C@@]1(C)O [Thapsigargin]	µM	≤	0.3
CCn1cnc2c(Nc3cccc(Cl)c3)nc(N[C@H]3CCCC[C@H]3N)nc21	µM	=	1
C[C@@H]1O[C@@H](O[C@H]2C[C@@H](O)[C@]3(CO)[C@H]4[C@H](O)C[C@]5(C)[C@@H](C6=CC(=O)OC6)CC[C@]5(O)[C@@H]4CC[C@]3(O)C2)[C@H](O)[C@H](O)[C@H]1O [Strophantine octahydrate]	µM	=	1
COc1cc2c(c(OC)c1OC)-c1ccc(OC)c(=O)cc1[C@@H](NC(C)=O)CC2 [colchicine]	µM	=	9
N#CC(C#N)=NNc1cccc(Cl)c1	µM	=	9
CN1C[C@H](C(=O)N[C@]2(C)O[C@@]3(O)[C@@H]4CCCN4C(=O)[C@H](Cc4ccccc4)N3C2=O)C[C@@H]2c3cccc4[nH]cc(c34)C[C@H]21.CN1C[C@H](C(=O)N[C@]2(C)O[C@@]3(O)[C@@H]4CCCN4C(=O)[C@H](Cc4ccccc4)N3C2=O)C[C@@H]2c3cccc4[nH]cc(c34)C[C@H]21 [dihydroergotamine]	µM	=	9
CC[C@H]1CN2CCc3cc(OC)c(OC)cc3[C@@H]2C[C@@H]1C[C@H]1NCCc2cc(OC)c(OC)cc21 [emetine]	µM	≤	0.3
CCCCCC[C@H]1C(=O)O[C@H](C)[C@H](NC(=O)c2cccc(NC=O)c2O)C(=O)O[C@@H](C)[C@@H]1OC(=O)CC(C)C [antimycin a]	µM	≤	0.3
COc1cc2c(cc1O)C[C@H]1c3c(cc(O)c(OC)c3-2)CCN1C [Boldine]	µM	=	9
CCN1CCN(C(=O)Cc2ccc(Nc3ncc(F)c(Nc4ccc(C(=O)Nc5ccccc5Cl)cc4)n3)cc2)CC1	µM	=	1
C[C@@H]1CC[C@H]2[C@@H](C)C(=O)O[C@@H]3O[C@@]4(C)CC[C@@H]1[C@]32OO4 [Artemisinin]	µM	≤	0.3
COc1ccc(CCN2CCC(Nc3nc4ccccc4n3Cc3ccc(F)cc3)CC2)cc1 [astemizole]	µM	=	1
Cc1sc2c(c1C)C(c1ccc(Cl)cc1)=N[C@@H](CC(N)=O)c1nnc(C)n1-2	µM	≤	0.3
